# TARGET OR TEST SYSTEM: T1, Macaca fascicularis (mf) RET.mmh (Macaca fascicularis)
# T1 construct: also called monkey RET
# T1 chain: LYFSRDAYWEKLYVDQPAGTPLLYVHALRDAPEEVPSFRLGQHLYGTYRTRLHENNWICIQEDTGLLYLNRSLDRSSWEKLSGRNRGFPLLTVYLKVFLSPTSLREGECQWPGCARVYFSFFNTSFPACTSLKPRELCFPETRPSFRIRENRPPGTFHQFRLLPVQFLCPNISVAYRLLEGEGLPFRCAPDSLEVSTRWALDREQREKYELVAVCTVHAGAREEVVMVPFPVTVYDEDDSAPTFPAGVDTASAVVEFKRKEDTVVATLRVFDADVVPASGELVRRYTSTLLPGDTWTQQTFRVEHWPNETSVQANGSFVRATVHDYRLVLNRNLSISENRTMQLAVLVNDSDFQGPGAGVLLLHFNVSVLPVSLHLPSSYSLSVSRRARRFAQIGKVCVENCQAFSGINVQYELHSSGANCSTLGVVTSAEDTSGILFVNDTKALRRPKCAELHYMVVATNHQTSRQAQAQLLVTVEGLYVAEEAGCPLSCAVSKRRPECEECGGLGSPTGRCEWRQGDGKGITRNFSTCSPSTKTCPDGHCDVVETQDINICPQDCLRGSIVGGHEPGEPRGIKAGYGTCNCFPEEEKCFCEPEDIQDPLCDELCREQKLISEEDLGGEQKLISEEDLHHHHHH
# PROCEDURE DETAILS: SPR Biacore T200, mAb capture, 37 C
pKd: −log10 of the molar value.

| BINDER | pKd |
| --- | --- |
| H4H8060P (antibody, human IgG4, V domains shown, human IgG4 Fc (H4H prefix)) VH: QVTLKESGPVLVKPTETLTLTCTVSGFSLSSARMGVSWIRQPPGKALEWLAHIFSTDEKSYSTSLKSRLSISKDTSLSQVVLIMTNMDPVDTATYYCARRTTMAPYYYYYGMDVWGHGTTVTVSS VL: AIQMTQSPASLSASVGDRVTITCRASQGIRNDLGWYQQKPGKAPKLLISAASSLQSGVPSRFSGSGSGTDFTLTISSLQPEDFATYYCLQDYKYPWTFGQGTKVEIK | 8.73 |
| H4H8076P (antibody, human IgG4, V domains shown, human IgG4 Fc (H4H prefix)) VH: QVQLQQSGPGLVKPSQTLSLTCAISGDSVSSNSVAWNWIRQSPSRGLEWLGRTYYRSNWYNTYAVSVKSRITIDPDTSKNQFSLQLNSVTPEDTALYYCARGHRYSGSYFDYWGQGTLVTVSS VL: DIQMTQSPSSLSASVGDRVTITCRASQNINSYFNWYQQKPGKAPKLLIYAASSLQSGVPSRFSGGGSGTDFTLTISSLQPEDFATYYCQQTYTIPWTFGQGTKVEIK | 8.32 |
| H4H8087P (antibody, human IgG4, V domains shown, human IgG4 Fc (H4H prefix)) VH: QVQLVESGGGVVQPGRSLRLSCAASGFSFSSYGMHWVRQAPGKGLEWVAVMWYDGSNEYYADSVKGRFIISRDNSKSTLYLEMNSLRAEDTALYYCAREDWDEGYYYGMDVWGQGTTVTVSS VL: DIQMTQSPSSLFASVGDRVTITCRASQDIRYDLGWYQQKPGKAPKRLIYASSILESGVPSRFSGSGSGTEYTLTISTLQSEDFAIYYCLQHNSFPWTFGQGTKVEIK | 8.80 |
| H4H8084P (antibody, human IgG4, V domains shown, human IgG4 Fc (H4H prefix)) VH: QVQLVESGGGVVQPGRSLRLSCEASGFTFRNYGMHWVRQAPGKGLDWVSTIYYDGSDEYYSDSVKGRFTISRDNSKNTLYLQMNSLRAEDTAVYYCARDPPSFRYFDYWGQGTLVTVSS VL: DIQMTQSPSTLSASVGDRVTITCRASQSIRSWLTWYQQKPGKAPKVLIYKASTLERGVPSRFSGSGSGTEFTLTISSLQPEDFATYYCHQYSSYSYTFGQGTKLEIK | 8.75 |
